tested.on: T1, 4H3112-AA
T1 chain: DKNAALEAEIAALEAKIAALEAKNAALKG
assay.comment: two-hybrid library CCmax;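 further: natural log of median RNA to DNA barcode read ratio; higher means stronger binding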
conditions.used: mean of both orientations
The label is met for interaction score below -0.4 and not met for interaction score equal to or exceeding -0.4.

binder	assigned.label
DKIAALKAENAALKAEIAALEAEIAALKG [4H2754-AA]	met
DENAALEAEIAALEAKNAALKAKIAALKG [4H1086-AA]	met
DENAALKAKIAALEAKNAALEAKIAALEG [4H1845-AA]	met
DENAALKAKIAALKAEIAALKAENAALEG [4H1867-AA]	not met
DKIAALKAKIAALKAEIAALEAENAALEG [4H2883-AA]	not met

Query: Quick check: interaction score of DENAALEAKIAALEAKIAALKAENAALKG [4H1324-AA] under -0.4?
Response: not met

Query: I wonder whether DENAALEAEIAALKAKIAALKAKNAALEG [4H1135-AA] has interaction score below -0.4. Can you tell?
Response: not met

Query: Is the reported interaction score for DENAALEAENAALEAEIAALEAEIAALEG [4H1153-AA] strictly below -0.4?
Response: met

Query: State whether -0.4 exceeds interaction score recorded for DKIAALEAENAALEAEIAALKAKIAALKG [4H2190-AA] .
Response: met

Query: Field: below-cutoff. Rule: recorded interaction score strictly less than -0.4. Subject: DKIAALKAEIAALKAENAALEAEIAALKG [4H2642-AA]
Response: met
